test system: U251 CNS; experiment: NCI-60 one-dose screen, 48 h (100 = growth as untreated, 0 = no growth, -100 = all killed); details: 10 µM unless noted
This is part of a sample that, as a whole, favours compounds with a hit. Of some 83,000 tested, about 20% had one in any assay. Activity calls are given as the source filed them. The calls were made as follows: active = growth percent below 10; inactive = the rest.
attribute_measured: growth

Parameters: items (list). Returns: growth for each item.
1. COc1cc(/C=C\c2cc(OC)c(OC)c(OC)c2)cc(N/C=C\C(=O)c2cc(OC)c(OC)c(OC)c2)c1OC
2. CCOC(=O)[C@@H](C)C[C@H](Cc1ccccc1)NC(=O)c1csc([C@@H](C[C@H](C(C)C)N(C)C(=O)[C@@H](NC(=O)[C@H]2CCCCN2C)C(C)(C)CC)OC(C)=O)n1
3. COc1ccc(Nc2ccc([N+](=O)[O-])cc2[N+](=O)[O-])cc1CN(CCCl)CCCl
4. N#C[S-].[Au+].c1ccc(CN2[CH-]N(Cc3ccccc3)C(c3ccccc3)=C2c2ccccc2)cc1

1: 31% (inactive); 2: 9.55% (active); 3: 29.6% (inactive); 4: 5.57% (active)

* * *

test system: NCI-H23 lung; assay: NCI-60 one-dose screen, 48 h (100 = growth as untreated, 0 = no growth, -100 = all killed); settings: 10 µM unless noted
The panel holds about 83,000 compounds, 20% with a hit somewhere; the sample as a whole holds those more often.
Grouping by measured growth is done with the following cut points: low end = under 30%, middle = from 30% up to 60%, high end = 60% and over

# example entries with known answers
[[record]]
compound = "ClCCN(CCCl)c1ccc(-n2cnc3c(Cl)ncnc32)cc1"
group = "low end"

[[record]]
compound = "Cn1cc(-c2csc(-c3cn(CCCCN4CCCCC4)c4ccccc34)n2)c2cccnc21"
group = "middle"

[[record]]
compound = "COc1cc([C@@H]2c3cc4c(cc3[C@H](OC(C)=O)[C@H]3COC(=O)[C@H]23)OCO4)cc(OC)c1OC"
group = "low end"


Could you tell me which band CN(C)CC(C(=O)Cc1ccccc1)c1ccccc1 (stereo not given) belongs to? high end

Could you tell me which band NC(=O)C(Br)c1ccccc1 (stereo not given) belongs to? high end

Could you tell me which band CC(CC1CCCCC1)NCc1ccccc1 (stereo not given) belongs to? high end

Could you tell me which band `COC(=O)N[C@H]1CCc2c(Br)c(OC)c(OC)c(OC)c2-c2ccc(SC)c(=O)cc21` belongs to? middle

Could you tell me which band `O=NN1CCCc2cccc(O)c21` belongs to? low end

Could you tell me which band `CC(=O)O[C@H](C[C@H](C(C)C)N(C)C(=O)[C@@H](NC(=O)[C@H]1CCCCN1C)C(C)(C)C)c1nc(C(=O)N[C@@H](Cc2ccccc2)C[C@H](C)C(=O)O)cs1` belongs to? middle

* * *

Field: growth. Provide a value for each of the molecules that follow.
test system: SW-620 colon; experiment: NCI-60 one-dose screen, 48 h (100 = growth as untreated, 0 = no growth, -100 = all killed); details: 10 µM unless noted
The panel holds about 83,000 compounds, 20% with a hit somewhere; the sample as a whole holds those more often.
Answers are plain numbers, in %.

Example cases with answers are listed next.
[[record]]
molecule = "COc1cc2c(c(OC)c1OC)-c1ccc([O-])c(=O)cc1[C@@H](NC(C)=O)CC2.COc1cc2c(c(OC)c1OC)-c1ccc([O-])c(=O)cc1[C@@H](NC(C)=O)CC2.[Cu+2]"
measurement_target = "SW-620 colon"
result_value = 19.3

[[record]]
molecule = "CCCCCCCOC(C(=O)OCCN(CC)CC)(c1ccccc1)c1ccccc1"
measurement_target = "SW-620 colon"
result_value = 77.3

[[record]]
molecule = "CC(=O)O[C@H](C[C@H](C(C)C)N(C)C(=O)[C@@H](NC(=O)[C@H]1CCCN1C)C(C)C)c1nc(C(=O)N[C@@H](Cc2ccccc2)C[C@H](C)C(=O)O)c(C)s1"
measurement_target = "SW-620 colon"
result_value = 25.1

[[record]]
molecule = "CCOP(=O)(Nc1ccc2c(c1)/C(=N/NC(N)=S)c1ccccc1-2)OCC"
measurement_target = "SW-620 colon"
result_value = 115

[[record]]
molecule = "COc1ccc(O)c(CNC(=O)CN2CCCC2=O)c1"
measurement_target = "SW-620 colon"
result_value = 101

[[record]]
molecule = "Nc1c(F)cc(-c2nc3cc(F)ccc3[se]2)cc1F"
measurement_target = "SW-620 colon"
result_value = 95.2

[[record]]
molecule = "CC(C)COC(C[N+](=O)[O-])C(Cl)(Cl)Cl (centres undefined)"
measurement_target = "SW-620 colon"
result_value = 107

[[record]]
molecule = "Cc1cc(N(CCCl)CCCl)ccc1C=Nc1ccc(-c2csc(Cc3ccccc3)n2)cc1"
measurement_target = "SW-620 colon"
result_value = 83.2


Now for another entry.
Please look at this molecule and report its growth: `C[n+]1c(/C=C/c2ccc(N(CCCl)CCCl)cc2)sc2ccccc21` 23.1

Ref: PubChem BioAssay (NCI)
